Molecular target: T1, 重组人CD73蛋白 (human, UniProt P21589 27-547, limits assumed)
T1 construct: Coated at 3 ug/ml in the ELISA and used at 5 ug/ml in the enzyme assay; also called rhCD73
T1 sequence (looked up): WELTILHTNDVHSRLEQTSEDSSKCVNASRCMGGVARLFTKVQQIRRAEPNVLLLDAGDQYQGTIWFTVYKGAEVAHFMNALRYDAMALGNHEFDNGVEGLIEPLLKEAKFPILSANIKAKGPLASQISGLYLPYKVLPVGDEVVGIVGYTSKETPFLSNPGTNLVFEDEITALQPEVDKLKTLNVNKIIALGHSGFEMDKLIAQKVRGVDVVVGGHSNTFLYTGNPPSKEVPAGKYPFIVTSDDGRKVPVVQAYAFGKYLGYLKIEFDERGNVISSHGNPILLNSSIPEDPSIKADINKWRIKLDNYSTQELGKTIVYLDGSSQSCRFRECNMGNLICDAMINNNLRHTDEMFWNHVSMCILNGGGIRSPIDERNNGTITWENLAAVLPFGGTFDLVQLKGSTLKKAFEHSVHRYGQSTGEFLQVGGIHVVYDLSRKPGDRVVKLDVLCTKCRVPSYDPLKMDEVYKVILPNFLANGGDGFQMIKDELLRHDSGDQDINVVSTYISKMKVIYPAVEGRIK
Experiment: ELISA, recombinant human CD73 coated at 3 ug/ml
EXPERIMENTAL_ENDPOINT: binding result

binder="137-8 (antibody, IgG1, V domains shown, also called 人源化CD73抗体; CQ137人源化抗体; not shown: kappa constant region) VH: QVQLVQSGAEVKKPGSSVKVSCKASGYSFTGYYIHWVRQAPGQGLEWMGRINPYNGATTYNQNFKDRVTITVDKSTSTAYMELSSLRSEDTAVYYCARFHYGAPDFWGQGTLVTVSS VL: DIQMTQSPSSLSASVGDRVTITCKASQDINTYLTWYQQKPGKAPKTLIYRANILVDGVPSRFSGSGSGTDFTLTISSLQPEDFATYYCLQYDQFPLTFGGGTKVEIKR" measured=binds
binder="137-5 (antibody, IgG1, V domains shown, also called 人源化CD73抗体; CQ137人源化抗体; not shown: kappa constant region) VH: QVQLVQSGAEVKKPGSSVKVSCKASGYSFTGYYIHWVRQAPGQGLEWMGRINPYNGATTYNQNFKDRVTITVDKSTSTAYMELSSLRSEDTAVYYCARFHYGAADYWGQGTLVTVSS VL: DIQMTQSPSSLSASVGDRVTITCKASQDINTYLTWYQQKPGKAPKTLIYRANILVDGVPSRFSGSGSGTDFTLTISSLQPEDFATYYCLQYNEFPLTFGGGTKVEIKR" measured=binds
binder="137-7 (antibody, IgG1, V domains shown, also called 人源化CD73抗体; CQ137人源化抗体; not shown: kappa constant region) VH: QVQLVQSGAEVKKPGSSVKVSCKASGYSFTGYYIHWVRQAPGQGLEWMGRINPYNGATTYNQNFKDRVTITVDKSTSTAYMELSSLRSEDTAVYYCARFHYGAPNYWGQGTLVTVSS VL: DIQMTQSPSSLSASVGDRVTITCKASQDINTYLTWYQQKPGKAPKTLIYRANILVDGVPSRFSGSGSGTDFTLTISSLQPEDFATYYCLQYDDFPLTFGGGTKVEIKR" measured=binds
